# measurement_protocol: Pharmacokinetics study after IV and PO administration to SD rats
# Format: in vivo
# conditions: SD, rat, plasma, iv, 2 mg/kg, IV 2 mg/kg, 2 h; read-out: Mean plasma concentration
measured_quantity: concentration at 2 h (ng/mL)
Numeric answer only, unit ng/mL assumed.

Find the recorded concentration at 2 h belonging to COc1cc(OC)c(Cl)c(-c2ccc3c(/C=C/c4ccc(N(C)C(=O)CN5CCN(C)CC5)cc4)n[nH]c3c2)c1Cl and report it.
72.7

* * *

# tested_system: KDR (h)/VEGFR2 (Homo sapiens)
# Sequence (P35968 20-1356): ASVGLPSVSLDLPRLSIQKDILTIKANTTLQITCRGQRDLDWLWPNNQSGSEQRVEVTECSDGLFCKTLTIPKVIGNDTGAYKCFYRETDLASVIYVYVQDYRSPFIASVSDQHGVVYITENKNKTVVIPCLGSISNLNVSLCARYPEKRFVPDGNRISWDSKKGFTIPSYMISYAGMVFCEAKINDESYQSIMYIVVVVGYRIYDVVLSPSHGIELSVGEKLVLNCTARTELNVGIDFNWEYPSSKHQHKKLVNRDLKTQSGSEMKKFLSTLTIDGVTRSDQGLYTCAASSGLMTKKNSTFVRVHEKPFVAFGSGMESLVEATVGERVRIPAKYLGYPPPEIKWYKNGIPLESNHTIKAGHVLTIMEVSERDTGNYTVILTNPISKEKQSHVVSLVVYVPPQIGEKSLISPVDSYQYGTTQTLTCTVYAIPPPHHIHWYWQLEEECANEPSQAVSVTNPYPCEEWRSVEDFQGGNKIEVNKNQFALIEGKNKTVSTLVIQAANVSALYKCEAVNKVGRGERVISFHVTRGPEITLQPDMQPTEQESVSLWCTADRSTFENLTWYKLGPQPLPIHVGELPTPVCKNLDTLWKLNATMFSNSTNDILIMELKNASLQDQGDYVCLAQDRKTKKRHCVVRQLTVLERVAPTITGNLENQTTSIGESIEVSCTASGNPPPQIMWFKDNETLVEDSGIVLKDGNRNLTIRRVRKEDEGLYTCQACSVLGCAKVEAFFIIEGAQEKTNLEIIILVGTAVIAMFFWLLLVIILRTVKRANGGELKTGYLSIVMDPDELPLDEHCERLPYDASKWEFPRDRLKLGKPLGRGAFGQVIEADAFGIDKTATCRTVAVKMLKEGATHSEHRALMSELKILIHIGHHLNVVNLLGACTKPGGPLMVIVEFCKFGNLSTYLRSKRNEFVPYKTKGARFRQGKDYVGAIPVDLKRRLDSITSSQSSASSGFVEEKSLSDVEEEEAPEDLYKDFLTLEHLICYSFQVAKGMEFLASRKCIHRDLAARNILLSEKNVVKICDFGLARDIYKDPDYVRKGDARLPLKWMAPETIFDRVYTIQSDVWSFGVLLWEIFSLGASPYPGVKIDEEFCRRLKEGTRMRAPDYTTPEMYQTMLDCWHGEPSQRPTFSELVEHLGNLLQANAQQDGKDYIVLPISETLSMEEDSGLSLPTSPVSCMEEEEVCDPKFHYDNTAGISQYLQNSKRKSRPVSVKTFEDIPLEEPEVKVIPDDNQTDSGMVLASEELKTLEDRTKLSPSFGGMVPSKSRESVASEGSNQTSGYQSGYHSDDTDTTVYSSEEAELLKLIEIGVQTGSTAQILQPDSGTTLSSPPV
# measurement_protocol: Kinase profile assay and IC50 test (Eurofins)
# Format: biochemical
# conditions: double testing
measured_quantity: IC50 (nM)
Report as a plain number; the unit nM is understood.

Record request: IC50 value, item COc1cc(OC)c(Cl)c(-c2ccc3c(/C=C/c4ccc(N(C)C(=O)CN5CCN(C)CC5)cc4)n[nH]c3c2)c1Cl [YTH‐60]
61

* * *

# measurement_protocol: Pharmacokinetics study after IV and PO administration to SD rats
# Assay type: in vivo
# conditions: Sprague-Dawley, rat, plasma, iv, 2 mg/kg, IV 2 mg/kg, 24 h; read-out: Mean plasma concentration
measured_quantity: concentration at 24 h
Please answer using the number first and the unit second.

Entry under review: COc1cc(OC)c(Cl)c(-c2ccc3c(/C=C/c4ccc(N(C)C(=O)CN5CCN(C)CC5)cc4)n[nH]c3c2)c1Cl . Reported concentration at 24 h?
2.82 ng/mL

* * *

# measurement_protocol: Determination of thermodynamic solubility
# Assay type: physicochemical
# conditions: organic solvent or mixture, thermodynamic from solid; Acetonitrile; double testing; read-out: Solubility, Acetonitrile
measured_quantity: solubility at 5 min (mg/mL)
Numbers only; they are read as mg/mL.

Which value of solubility at 5 min has been reported for COc1cc(OC)c(Cl)c(-c2ccc3c(/C=C/c4ccc(N(C)C(=O)CN5CCN(C)CC5)cc4)n[nH]c3c2)c1Cl [YTH‐60] in the records?
18.3

Likewise for COC(=O)c1ccc2c(c1)NC(=O)/C2=C(\Nc1ccc(N(C)C(=O)CN2CCN(C)CC2)cc1)c1ccccc1 [Nintedanib, reference compound] ?
3.52

* * *

# measurement_protocol: Pharmacokinetics study after IV and PO administration to SD rats
# Assay type: in vivo
# conditions: rat, plasma, po; SD rats, p.o. 20 mg·kg^−1
measured_quantity: half-life (h)
// units = h; emit number, no label

Look up half-life: COc1cc(OC)c(Cl)c(-c2ccc3c(/C=C/c4ccc(N(C)C(=O)CN5CCN(C)CC5)cc4)n[nH]c3c2)c1Cl
8.03

* * *

# measurement_protocol: Pharmacokinetics study after IV and PO administration to SD rats
# Format: in vivo
# conditions: SD, rat, plasma, iv, 2 mg/kg, SD rats, i.v. 2 mg·kg^−1; read-out: AUC0‐t
measured_quantity: AUC (ng·h/mL)
Express the result in ng·h/mL but write the number alone.

Dear colleague, I am looking for the recorded AUC of the following compound: COc1cc(OC)c(Cl)c(-c2ccc3c(/C=C/c4ccc(N(C)C(=O)CN5CCN(C)CC5)cc4)n[nH]c3c2)c1Cl [YTH‐60]
773

* * *

# measurement_protocol: Pharmacokinetics study after IV and PO administration to SD rats
# Type: in vivo
# conditions: SD, rat, plasma, po, 20 mg/kg, PO 20 mg/kg, 4 h; read-out: Mean plasma concentration
measured_quantity: concentration at 4 h

Please give the measured concentration at 4 h for this compound: COc1cc(OC)c(Cl)c(-c2ccc3c(/C=C/c4ccc(N(C)C(=O)CN5CCN(C)CC5)cc4)n[nH]c3c2)c1Cl
85.2 ng/mL

* * *

# measurement_protocol: Determination of thermodynamic solubility
# Assay type: physicochemical
# conditions: thermodynamic from solid; Water; double testing; read-out: Solubility, Water
Give solubility at 5 min for every item shown.
Express it in µg/mL; write the number only.

Reported solubility at 5 min for COc1cc(OC)c(Cl)c(-c2ccc3c(/C=C/c4ccc(N(C)C(=O)CN5CCN(C)CC5)cc4)n[nH]c3c2)c1Cl [YTH‐60] : what is it?
1710

Another molecule: COC(=O)c1ccc2c(c1)NC(=O)/C2=C(\Nc1ccc(N(C)C(=O)CN2CCN(C)CC2)cc1)c1ccccc1 [Nintedanib, reference compound]
280

* * *

# measurement_protocol: Pharmacokinetics study after IV and PO administration to SD rats
# Assay type: in vivo
# conditions: SD, rat, plasma, iv, 2 mg/kg, IV 2 mg/kg, 8 h; individual animals 101, 102, 103; read-out: Individual plasma concentration
measured_quantity: concentration at 8 h

Please report the recorded concentration at 8 h for COc1cc(OC)c(Cl)c(-c2ccc3c(/C=C/c4ccc(N(C)C(=O)CN5CCN(C)CC5)cc4)n[nH]c3c2)c1Cl [YTH‐60] .
20.4 ng/mL

* * *

# tested_system: Src (1‐530) (h) (Homo sapiens)
# Sequence (P12931 1-530): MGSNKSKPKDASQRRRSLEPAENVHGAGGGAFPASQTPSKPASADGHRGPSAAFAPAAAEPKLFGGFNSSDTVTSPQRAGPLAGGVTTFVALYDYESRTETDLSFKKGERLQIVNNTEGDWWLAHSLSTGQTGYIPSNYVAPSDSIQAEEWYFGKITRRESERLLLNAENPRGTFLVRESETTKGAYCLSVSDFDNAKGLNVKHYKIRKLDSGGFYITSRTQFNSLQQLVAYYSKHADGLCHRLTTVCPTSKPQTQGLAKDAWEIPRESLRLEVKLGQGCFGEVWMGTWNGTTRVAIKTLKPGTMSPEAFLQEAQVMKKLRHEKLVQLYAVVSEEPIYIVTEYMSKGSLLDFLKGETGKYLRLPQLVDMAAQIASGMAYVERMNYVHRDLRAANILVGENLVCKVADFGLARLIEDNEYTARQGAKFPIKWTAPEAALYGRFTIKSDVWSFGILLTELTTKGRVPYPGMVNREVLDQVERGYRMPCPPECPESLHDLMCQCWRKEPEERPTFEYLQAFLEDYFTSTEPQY
measured_quantity: IC50 (nM)
Give your result in nM as a bare value.

Field request: IC50 | item: COc1cc(OC)c(Cl)c(-c2ccc3c(/C=C/c4ccc(N(C)C(=O)CN5CCN(C)CC5)cc4)n[nH]c3c2)c1Cl
633

* * *

# measurement_protocol: Pharmacokinetics study after IV and PO administration to SD rats
# Assay type: in vivo
# conditions: rat, plasma, iv; SD rats, i.v. 2 mg·kg^−1; unit inferred
measured_quantity: clearance (mL/min/kg)
Dear colleague, please return just the value in mL/min/kg, with no unit written.

Any idea what its clearance is? The compound is COc1cc(OC)c(Cl)c(-c2ccc3c(/C=C/c4ccc(N(C)C(=O)CN5CCN(C)CC5)cc4)n[nH]c3c2)c1Cl [YTH‐60]
42.5

* * *

# measurement_protocol: Determination of thermodynamic solubility
# Assay type: physicochemical
# conditions: saline or isotonic, thermodynamic from solid; Normal saline; double testing; read-out: Solubility, Normal saline
measured_quantity: solubility at 5 min (µg/mL)
A number alone suffices; assume µg/mL.

Recorded solubility at 5 min for COc1cc(OC)c(Cl)c(-c2ccc3c(/C=C/c4ccc(N(C)C(=O)CN5CCN(C)CC5)cc4)n[nH]c3c2)c1Cl , please?
12700

Also COC(=O)c1ccc2c(c1)NC(=O)/C2=C(\Nc1ccc(N(C)C(=O)CN2CCN(C)CC2)cc1)c1ccccc1 [Nintedanib, reference compound] ?
1930

* * *

# measurement_protocol: Pharmacokinetics study after IV and PO administration to SD rats
# Assay type: in vivo
# conditions: SD, rat, plasma, po, 20 mg/kg, PO 20 mg/kg, 6 h; individual animals 201, 202, 203; read-out: Individual plasma concentration
measured_quantity: concentration at 6 h (ng/mL)
Unit ng/mL implied. Number only.

// query concentration at 6 h value for entry COc1cc(OC)c(Cl)c(-c2ccc3c(/C=C/c4ccc(N(C)C(=O)CN5CCN(C)CC5)cc4)n[nH]c3c2)c1Cl
82.5

* * *

# measurement_protocol: Pharmacokinetics study after IV and PO administration to SD rats
# Type: in vivo
# conditions: SD, rat, plasma, iv, 2 mg/kg, IV 2 mg/kg, 6 h; individual animals 101, 102, 103; read-out: Individual plasma concentration
measured_quantity: concentration at 6 h (ng/mL)
Answer format: numeric, ng/mL implied, no suffix.

concentration at 6 h for COc1cc(OC)c(Cl)c(-c2ccc3c(/C=C/c4ccc(N(C)C(=O)CN5CCN(C)CC5)cc4)n[nH]c3c2)c1Cl ?
36.8

* * *

# measurement_protocol: Pharmacokinetics study after IV and PO administration to SD rats
# Type: in vivo
# conditions: rat, plasma, po; SD rats, p.o. 20 mg·kg^−1; read-out: F (oral bioavailability)
measured_quantity: bioavailability (%)
Reply numerically in %, unit not repeated.

What does the record list as bioavailability for COc1cc(OC)c(Cl)c(-c2ccc3c(/C=C/c4ccc(N(C)C(=O)CN5CCN(C)CC5)cc4)n[nH]c3c2)c1Cl ?
17.9

* * *

# measurement_protocol: Pharmacokinetics study after IV and PO administration to SD rats
# Assay type: in vivo
# conditions: Sprague-Dawley, rat, plasma, iv, 2 mg/kg, IV 2 mg/kg, 0.5 h; individual animals 101, 102, 103; read-out: Individual plasma concentration
measured_quantity: concentration at 0.5 h (ng/mL)
Quick reminder: number only, in ng/mL, skip the unit.

Reported concentration at 0.5 h, compound COc1cc(OC)c(Cl)c(-c2ccc3c(/C=C/c4ccc(N(C)C(=O)CN5CCN(C)CC5)cc4)n[nH]c3c2)c1Cl : ____
153

* * *

# measurement_protocol: Pharmacokinetics study after IV and PO administration to SD rats
# Format: in vivo
# conditions: Sprague-Dawley, rat, plasma, iv, 2 mg/kg, IV 2 mg/kg, 1 h; read-out: Mean plasma concentration
measured_quantity: concentration at 1 h (ng/mL)
Kindly provide the numeric value in ng/mL only, without the unit symbol.

Would you kindly share the measured concentration at 1 h for COc1cc(OC)c(Cl)c(-c2ccc3c(/C=C/c4ccc(N(C)C(=O)CN5CCN(C)CC5)cc4)n[nH]c3c2)c1Cl ?
117
